Test system: Human papillomavirus type 1a E7 protein (residues 1-88)
protocol description: HPV1a E7 small-molecule binders, primary screen, biochemical, small-molecule microarray, residues 1-88, 635 nm (AID 1129)
experimental setup: small-molecule microarray binding, fluorescence 635 nm; higher = more signal
Below, each entry is listed with its recorded composite z-score.

Example entries and their recorded answers appear below.
1) CCOC(=O)[C@H](CC(C)C)NC(=O)CCC1CC(OC(=O)NCc2ccc3c(c2)OCO3)CC2(CCCC(COC(=O)NCc3ccccc3)O2)O1 (some centres not stated) = 0.946
2) COC(=O)[C@H](C)NC(=O)CCC1CC(OC(=O)NCCc2ccc(F)cc2)CC2(CCCC(COC(=O)NCCc3ccccc3OC)O2)O1 (some centres not stated) = 1.12
3) CC(C)CON=C1C[C@@H](O)[C@@H](O)[C@@H]2[C@@H]3C(=O)N(C(C)(C)C)C(=O)[C@@H]3CC[C@@H]12 = -0.537

Prompt: For the compound `O=C1[C@H]2[C@H]3[C@H](O)[C@H](O)CC(=NO[C@@H]4O[C@H](CO)[C@@H](O)[C@H](O)[C@H]4O)[C@@H]3CC[C@H]2C(=O)N1C[C@@H]1CCCO1` , what composite z-score is on record?
Completion: 1.15

Prompt: # composite z-score lookup, item CCOC(=O)[C@H](Cc1ccccc1)NC(=O)CCC1CC(OC(=O)NCc2cccc3ccccc23)CC2(CCCC(COC(=O)NCCc3ccccc3OC)O2)O1 (some centres not stated)
Completion: 0.79

Prompt: So what does the record say about composite z-score for `C[C@H]1C=CCC(=O)OC[C@H](C)C(=O)N2CCC[C@H]2C(=O)OC1` ?
Completion: -1.44

Prompt: I am curious: what composite z-score value has been reported for `CC(CCN1CCCc2nc(C)c(C)cc21)=NO[C@H](C)c1cn([C@H](CO)Cc2ccccc2)nn1` ?
Completion: 0.474
